The entries below are paired with their reported pIC50.
target: Keap1 Kelch domain (321-609) / TAMRA-labeled 16mer NRF2 peptide (ETGE motif) (Homo sapiens, UniProt Q14145); construct: the Kelch domain (321-609) of Keap1 is used; assay: NRF2-Keap1 FP Assay (Keap1 Kelch fluorescence polarization); conditions: 20 nM Keap1 (321-609), 8 nM Tamra labeled peptide
Sequence (Q14145 321-609): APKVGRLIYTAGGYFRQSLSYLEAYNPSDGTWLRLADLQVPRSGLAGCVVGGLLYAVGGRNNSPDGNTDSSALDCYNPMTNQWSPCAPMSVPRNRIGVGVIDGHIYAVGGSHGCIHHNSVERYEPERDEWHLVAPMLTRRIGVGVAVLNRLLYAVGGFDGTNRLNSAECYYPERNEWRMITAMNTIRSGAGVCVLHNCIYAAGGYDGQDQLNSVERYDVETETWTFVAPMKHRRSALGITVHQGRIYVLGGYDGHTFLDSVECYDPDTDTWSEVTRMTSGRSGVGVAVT
pIC50: −log10 of the molar value.

molecule	pIC50
C[C@H](Oc1cccc(-c2cccc(-n3ncc(C(=O)O)c3[C@@H]3C[C@H]3c3cn(C)nn3)c2)c1)C1CCCCC1 [Example 70]	7.00 to 8.00
CCC[C@@H]1CCCCN1C(=O)c1cccc(-c2cccc(-n3ncc(C(=O)O)c3C3CC3c3cnoc3C)c2)c1 (stereo partly drawn)	7.00 to 8.00
CC(C)Oc1cccc(-c2cccc(-n3ncc(C(=O)O)c3C3CC3c3cn(C)nn3)c2)c1 (stereo not drawn)	6.00 to 7.00

The values you see were collected from patent US10364256B2.
